- assayed-target: HLA-A*0201 (human)
- assay-name: competition with 125I-labelled standard peptide for purified HLA, gel filtration
- test-conditions: remark: other sources report otherwise; scale: ratio
Please note: y applies when binding affinity ratio is 0.001 or greater, and n applies otherwise.

Observe how each entry below is paired with its result.
1. SVGCTGAVPLI (modifications not checked) [Kallikrein (hK2) peptide … (position 11, 11 amino acids)]: y
2. LLRLSEPAELT (modifications not checked) [… (PSA, position 119, 11 amino acids)]: y
3. SLHLLSNDM (modifications not checked) [Kallikrein (hK2) peptide … (position 175, 9 amino acids)]: n

Below: the item to evaluate.
Decide: binding affinity ratio of STCSGDSGGPL (modifications not checked) [PSA peptide … (position 203, 11 amino acids)] >= 0.001?
n
